# Assayed target: cytoplasmic kinase domain of human IGF-1R (IGF-1R-GST) (Homo sapiens, UniProt P08069)
# Construct: cytoplasmic kinase domain of human IGF-1R (amino acids 964-1370); GST (glutathione-S-transferase)
# Sequence (P08069 964-1367 limits assumed): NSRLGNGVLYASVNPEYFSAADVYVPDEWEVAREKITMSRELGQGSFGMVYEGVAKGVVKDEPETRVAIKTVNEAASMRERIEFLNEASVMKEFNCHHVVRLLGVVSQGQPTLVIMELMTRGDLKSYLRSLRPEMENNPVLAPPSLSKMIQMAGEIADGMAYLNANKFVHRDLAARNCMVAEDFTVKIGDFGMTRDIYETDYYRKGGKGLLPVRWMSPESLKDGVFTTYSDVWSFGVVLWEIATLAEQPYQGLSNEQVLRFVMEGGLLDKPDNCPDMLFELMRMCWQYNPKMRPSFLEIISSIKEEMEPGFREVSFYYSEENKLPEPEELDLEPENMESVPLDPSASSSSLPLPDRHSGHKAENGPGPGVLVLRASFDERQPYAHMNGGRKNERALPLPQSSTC
# Assay: Insulin-like growth factor-1 receptor (IGF-1R) kinase assay (DELFIA)
# Experimental setup: IGF-1R-GST kinase activity, read-out: IGF1R IC50
// assign MET if IC50 falls strictly below 3 nM, else NOT MET (ties count as NOT MET)

COc1cc(C2CCCN(CCO)C2)ccc1Nc1ncc(C(F)(F)F)c(NCc2cccc3c2C(C)(C)C(=O)N3)n1 (racemic) [Example I-351] | MET
Cc1cc(C2CCN(CCO)CC2)ccc1Nc1ncc(Cl)c(NCc2cccc3c2C(C)(C)C(=O)N3)n1 [Example I-217] | MET
COc1cc(N2CCN(C(=O)CN(C)C)CC2)ccc1Nc1ncc(C(F)(F)F)c(NCc2cccc3c2CC(=O)N3)n1 [Example I-91] | NOT MET

Incoming: Just wondering, is IC50 of COc1cc(N2CCC(N3CCCC3)CC2)ccc1Nc1ncc(C(F)(F)F)c(NCc2cccc3c2C(C)(C)C(=O)N3)n1 [Example I-180] below 3 nM?
Outgoing: MET

Incoming: Just wondering, is IC50 of COc1cc(N2CCN(C(=O)C3CCCN(C)C3)CC2)ccc1Nc1ncc(Cl)c(NCc2cccc3c2C(C)(C)C(=O)N3)n1 (stereo not drawn) [Example I-63] below 3 nM?
Outgoing: MET

Incoming: Just wondering, is IC50 of COc1cc(C(=O)NC2CCN(C)CC2)ccc1Nc1ncc(C(F)(F)F)c(NCc2cccc3c2C(C)(C)C(=O)N3)n1 [Example I-228] below 3 nM?
Outgoing: NOT MET

Incoming: Just wondering, is IC50 of COc1cc(N2CCN(C3CCN(C)CC3)CC2)ccc1Nc1ncc(C(F)(F)F)c(NCc2cccc3c2CC(=O)N3)n1 [Example I-117] below 3 nM?
Outgoing: NOT MET

Incoming: Just wondering, is IC50 of CCc1cc(Nc2ncc(C(F)(F)F)c(NCc3cccc4c3CC(=O)N4)n2)c(OC)cc1N1CCN(C(C)C)CC1 [Example I-137] below 3 nM?
Outgoing: NOT MET
